B1: TPR t1 (parent)
chain: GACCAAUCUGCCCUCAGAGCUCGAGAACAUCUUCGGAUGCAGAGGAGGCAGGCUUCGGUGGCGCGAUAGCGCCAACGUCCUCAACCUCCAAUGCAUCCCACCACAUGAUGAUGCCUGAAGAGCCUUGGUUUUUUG

Variants of: B1
ASSAY_SUMMARY: polymerase ribozyme fitness, log enrichment relative to wild type (log ratio); higher = more active; in vitro selection for triplet polymerase activity
REPORTED_METRIC: polymerase ribozyme fitness (log ratio)

MUTATION_ID | REPORTED_METRIC | ASSAY_VALUE
C20G G45A U130C | polymerase ribozyme fitness (log ratio) | -5.42
A41U U55A | polymerase ribozyme fitness (log ratio) | -1.08
C70A G110A | polymerase ribozyme fitness (log ratio) | -3.53
C79U C94A C102A G120C | polymerase ribozyme fitness (log ratio) | -2.46
C15U G60A C73U U78A G135U | polymerase ribozyme fitness (log ratio) | -1.76
U81C C114U | polymerase ribozyme fitness (log ratio) | -1.96
C8A C11A G51U | polymerase ribozyme fitness (log ratio) | -2.89
C72U U112C | polymerase ribozyme fitness (log ratio) | 1.19
C8G G71A C73A C94U C104U | polymerase ribozyme fitness (log ratio) | -1.01
A5C C62U C72G C101G U106G U129C | polymerase ribozyme fitness (log ratio) | -5.17
A18G A24G C34U G61A A111U G128U G135U | polymerase ribozyme fitness (log ratio) | -6.04
G10C C15A A50U C115U | polymerase ribozyme fitness (log ratio) | -5.25
G69C C124U | polymerase ribozyme fitness (log ratio) | 0.177
C79G G120A | polymerase ribozyme fitness (log ratio) | -0.791
C11A G47C | polymerase ribozyme fitness (log ratio) | -2.77
C13U C70G A83C U112C | polymerase ribozyme fitness (log ratio) | -1.45
A6G G51A | polymerase ribozyme fitness (log ratio) | -2.27
C20U U32C G71A U112C | polymerase ribozyme fitness (log ratio) | -1.25
G69A C98U | polymerase ribozyme fitness (log ratio) | -3.52
C15G G17U C40U | polymerase ribozyme fitness (log ratio) | -4.85
A41C G117C | polymerase ribozyme fitness (log ratio) | -4.47

The reported numbers originate from the RNAGym collection of RNA variant scans (doi:10.1073/pnas.2313332121).
